// data source = patent EP4748847A1

binders and their reported pERK Assay Results (AlphaLISA p-Erk1/2, HUVEC)
Target: VEGFR-2 (human, UniProt P35968 20-1356)
Sequence (P35968 20-1356): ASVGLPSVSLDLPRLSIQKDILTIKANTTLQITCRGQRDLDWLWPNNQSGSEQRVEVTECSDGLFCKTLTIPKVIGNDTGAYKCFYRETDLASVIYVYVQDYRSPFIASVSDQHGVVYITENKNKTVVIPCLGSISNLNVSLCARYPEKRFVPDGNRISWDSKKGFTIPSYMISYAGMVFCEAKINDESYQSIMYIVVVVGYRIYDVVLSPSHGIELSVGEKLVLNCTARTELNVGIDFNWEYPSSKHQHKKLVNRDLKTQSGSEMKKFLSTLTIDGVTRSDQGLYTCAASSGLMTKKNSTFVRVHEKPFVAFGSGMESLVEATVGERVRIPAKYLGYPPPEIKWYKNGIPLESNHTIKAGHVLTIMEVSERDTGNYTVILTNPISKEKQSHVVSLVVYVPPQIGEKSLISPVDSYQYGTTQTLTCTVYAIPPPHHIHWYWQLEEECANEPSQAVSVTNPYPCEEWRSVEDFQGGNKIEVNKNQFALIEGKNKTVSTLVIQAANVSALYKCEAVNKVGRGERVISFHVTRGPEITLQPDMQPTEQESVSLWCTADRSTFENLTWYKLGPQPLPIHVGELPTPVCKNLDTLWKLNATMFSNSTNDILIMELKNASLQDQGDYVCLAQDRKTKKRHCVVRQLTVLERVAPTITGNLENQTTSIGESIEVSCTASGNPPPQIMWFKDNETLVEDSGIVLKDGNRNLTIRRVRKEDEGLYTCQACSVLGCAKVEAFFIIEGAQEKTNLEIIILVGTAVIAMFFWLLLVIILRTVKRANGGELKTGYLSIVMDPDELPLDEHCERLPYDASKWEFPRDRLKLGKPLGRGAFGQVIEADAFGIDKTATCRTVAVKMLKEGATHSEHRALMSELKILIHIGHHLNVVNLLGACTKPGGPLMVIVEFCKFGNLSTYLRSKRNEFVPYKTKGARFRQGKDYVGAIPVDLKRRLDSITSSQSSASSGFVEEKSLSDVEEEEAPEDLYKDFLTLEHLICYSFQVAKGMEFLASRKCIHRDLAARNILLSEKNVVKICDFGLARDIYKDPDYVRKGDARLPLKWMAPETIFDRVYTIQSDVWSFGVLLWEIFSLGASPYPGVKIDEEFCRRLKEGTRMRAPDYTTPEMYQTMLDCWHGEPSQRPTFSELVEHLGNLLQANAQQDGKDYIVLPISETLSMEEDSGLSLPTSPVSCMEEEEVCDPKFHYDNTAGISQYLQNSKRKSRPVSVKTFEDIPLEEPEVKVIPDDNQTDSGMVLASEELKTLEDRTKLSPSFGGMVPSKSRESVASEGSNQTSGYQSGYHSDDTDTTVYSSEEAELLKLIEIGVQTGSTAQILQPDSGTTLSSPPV
Experiment: cell-based or functional assay
Bridges are numbered along the chain shown (N, C = ends). [ ]: non-standard residue; d: D form. hTyr = N[C@@H](CCc1ccc(O)cc1)C(=O)O; Hyp = O=C(O)[C@@H]1C[C@@H](O)CN1; Chg = N[C@H](C(=O)O)C1CCCCC1; Tle = CC(C)(C)[C@H](N)C(=O)O; Atb = not defined here

>  <BINDER>
{CH2CO}-WWVDVKDDLY[F4G][hTyr][Hyp]CG-NH2 (thioether N-14; also: homodimer: Lys6 joined to Lys6 of second copy by OCOPEG13OCO (Linker Structure No. 5)) [Peptide complex Dimer Structure No. 41]

>  <VALUE_REPORTED>
≥ 50 % activity at 10 nM

$$$$
>  <BINDER>
{CH2CO}-WW[Tle]DVKDDLYF[Chg]DCG-NH2 (thioether N-14; not fully specified (residue 6); also: homodimer: Lys6 joined to Lys6 of second copy by cPEG17c (Linker Structure No. 4)) [Peptide complex Dimer Structure No. 31]

>  <VALUE_REPORTED>
≥ 50 % activity at 10 nM

$$$$
>  <BINDER>
{CH2CO}-WW[Tle]DVKNDLYF[hTyr]DCG-NH2 (thioether N-14; also: homodimer: Lys6 joined to Lys6 of second copy by cPEG17c (Linker Structure No. 4)) [Peptide complex Dimer Structure No. 47]

>  <VALUE_REPORTED>
≥ 50 % activity at 20 nM

$$$$

pERK Assay Results (AlphaLISA p-Erk1/2, HUVEC) measured on {CH2CO}-WW[hTyr]DVKDD[Atb]Y[F4G]VDCG-NH2 (thioether N-14; reading uncertain; also: dimer: Lys6 joined to Lys6 of second copy by OCOPEG13OCO (Linker Structure No. 5)) [Peptide complex Dimer Structure No. 56] = ≥ 50 % activity at 20 nM

The value of pERK Assay Results (AlphaLISA p-Erk1/2, HUVEC) measured for the binder {CH2CO}-WW[Tle]DVKDD[Atb]Y[F4G][hTyr]DCG-NH2 (thioether N-14; reading uncertain; also: dimer: Lys6 joined to Lys6 of second copy by OCOPEG13OCO (Linker Structure No. 5)) [Peptide complex Dimer Structure No. 55] turned out to be ≥ 50 % activity at 5 nM

Record summary for {CH2CO}-WWVDVKDDLYFVDCG-NH2 (thioether N-14; also: homodimer: Lys6 joined to Lys6 of second copy by OCOPEG17OCO (Linker Structure No. 6)) [Peptide complex Dimer Structure No. 50] : reported pERK Assay Results (AlphaLISA p-Erk1/2, HUVEC) = ≥ 50 % activity at 20 nM

Entry {CH2CO}-WW[Tle]DVKDDLY[F4G]VDCG-NH2 (thioether N-14; also: homodimer: Lys6 joined to Lys6 of second copy by OCOPEG17OCO (Linker Structure No. 6)) [Peptide complex Dimer Structure No. 51] , pERK Assay Results (AlphaLISA p-Erk1/2, HUVEC) reported as ≥ 50 % activity at 5 nM
